Assign Triglycerides to each entry below.
system: high fat-fed C57Bl/6J mice; assay: Circulating triglycerides, free fatty acids, insulin and leptin in high fat-fed C57Bl/6J mice; format: in vivo; conditions: 10 mg/kg oral gavage, after 2 weeks of drug treatments
Give bare numbers, in mg/dL.

Worked examples, 3 compounds total:
Compound	System	Triglycerides (mg/dL)
Cc1cccc(C)c1COc1cccc(C(=O)CCC(=O)O)c1	high fat-fed C57Bl/6J mice	68.8
Cc1cccc(C)c1COc1cccc(C(=O)CCC(=O)[O-])c1.[Na+]	high fat-fed C57Bl/6J mice	80
Cc1cccc(Nc2cc(Cl)nc(SCC(=O)O)n2)c1C [Wy14643, reference compound]	high fat-fed C57Bl/6J mice	70.6

Pending compound:
Req: Report Triglycerides for CN(CCOc1ccc(CC2SC(=O)NC2=O)cc1)c1ccccn1 (stereo not shown) [Rosiglitazone, rosiglitazone, reference compound] please.
Resp: 129.5

====

system: db/db mice; experiment: Antidiabetic effects in db/db mice, 2 weeks (Example I); assay type: in vivo, C57BL/Ksola mice; details: serum, 100 mg/kg daily oral
Value kind: Free Fatty Acids ± SEM (µM)
Answers are plain numbers, in µM.

Worked examples, 3 molecules total:
Record smiles	Units symbol	Free Fatty Acids ± SEM
O=C(O)CCC(=O)c1cccc(OCc2ccc(C(F)(F)F)cc2)c1	µM	2825.9
COc1cccc(OC)c1COc1cccc(C(=O)CCC(=O)O)c1	µM	3766.3
Cc1cccc(C)c1COc1cccc(C(=O)CC(C)(C)C(=O)O)c1	µM	3772.6

Pending molecule:
Req: Report Free Fatty Acids ± SEM for Cc1cccc(C)c1COc1cccc(C(=O)CCC(=O)O)c1 please.
Resp: 2999.9

====

tested on: high fat-fed C57Bl/6J mice; experiment: Circulating triglycerides, free fatty acids, insulin and leptin in high fat-fed C57Bl/6J mice; format: in vivo; conditions: 100 mg/kg oral gavage, after 2 weeks of drug treatments
Assign Triglycerides to each entry below.

Worked examples, 3 compounds total:
Compound	Test value
Cc1cccc(C)c1COc1cccc(C(=O)CCC(=O)[O-])c1.[Na+]	41 ± 5.6 mg/dL
CN(CCOc1ccc(CC2SC(=O)NC2=O)cc1)c1ccccn1 (stereo not shown) [Rosiglitazone, rosiglitazone, reference compound]	88 ± 7.2 mg/dL
Cc1cccc(C)c1COc1cccc(C(=O)CCC(=O)O)c1	37.4 ± 8.3 mg/dL

Pending compound:
Req: Report Triglycerides for Cc1cccc(Nc2cc(Cl)nc(SCC(=O)O)n2)c1C [Wy14643, reference compound] please.
Resp: 88.4 ± 18.8 mg/dL

====

tested on: ob/ob obese diabetic mice; assay: Acute hypoglycemic effect in ob/ob obese diabetic mice: Experiment 1; type: in vivo; conditions: single oral dose by gavage, 6 hours
Value kind: % Reduction vs Control (%)
Answers are plain numbers, in %.

Worked examples, 4 molecules total:
Record smiles	System	Value kind	Test value
O=C(O)CCC(=O)c1ccc(OCc2c(F)cccc2F)cc1	ob/ob obese diabetic mice	% Reduction vs Control	−24.9
CCOC(=O)CCC(=O)c1ccc(OCc2ccccc2F)cc1	ob/ob obese diabetic mice	% Reduction vs Control	−29.3
O=C(O)CCC(=O)c1ccc(OCc2ccccc2Cl)cc1	ob/ob obese diabetic mice	% Reduction vs Control	−14.1
O=C(O)CCC(=O)c1ccc(OCc2ccccc2F)cc1	ob/ob obese diabetic mice	% Reduction vs Control	−18.5

Please state % Reduction vs Control for every molecule in the list that follows.
1. O=C(O)CCC(=O)c1ccc(OCCc2ccccc2F)cc1
2. COc1ccccc1COc1ccc(C(=O)CCC(=O)O)cc1
3. O=C(O)CCC(=O)c1ccc(OCc2ccccc2)cc1
4. Cc1ccccc1COc1ccc(C(=O)CCC(=O)O)cc1

Resp:
−36.0
−39.1
−25.3
−43.4

// provenance: patent US6924314B2
